# Tested on: Streptococcus pyogens (ATCC8668)
# Measurement description: Microtitre plate assay, IC90 determination
# Assay type: cell-based
# Particulars: 90% inhibitory concentration for bacterial growth
Value kind: IC90 SPY 8668 (µg/mL)

1. COc1nc2ccc(Br)cc2cc1C(c1ccccc1)C(O)(CC[N+](C)(C)C)c1cccc(F)c1.[I-] (single isomer, unassigned): 1.7
2. COc1nc2ccc(Br)cc2cc1C(c1ccc(Cl)cc1)C(O)(CC[N+](C)(C)C)c1ccccc1.[I-] (single isomer, unassigned): 1.75
3. COc1nc2ccc(Br)cc2cc1C(c1ccccc1)C(O)(CC[N+](C)(C)C)c1cccc2ccccc12.[I-] (single isomer, unassigned) [Compound 103]: 2.8

Taken from patent US20100197727A1.
